- TESTED_TARGET: MAP kinase-activated protein kinase 5 (Homo sapiens); further: in the data inactive means no Kd found up to 30 µM
- Sequence (Q8IW41 whole entry): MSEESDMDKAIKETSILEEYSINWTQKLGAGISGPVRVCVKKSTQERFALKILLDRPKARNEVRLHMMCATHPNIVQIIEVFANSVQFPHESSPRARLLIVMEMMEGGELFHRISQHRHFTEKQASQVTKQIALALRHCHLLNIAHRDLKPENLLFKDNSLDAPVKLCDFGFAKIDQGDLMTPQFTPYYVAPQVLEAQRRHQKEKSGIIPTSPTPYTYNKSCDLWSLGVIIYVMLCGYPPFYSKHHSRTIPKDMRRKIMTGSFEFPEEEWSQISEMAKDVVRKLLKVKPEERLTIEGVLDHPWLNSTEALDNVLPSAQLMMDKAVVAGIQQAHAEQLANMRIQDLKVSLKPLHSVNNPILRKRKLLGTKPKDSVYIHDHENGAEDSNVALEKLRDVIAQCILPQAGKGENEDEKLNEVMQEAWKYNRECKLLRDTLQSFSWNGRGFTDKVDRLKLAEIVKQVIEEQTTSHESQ
Where a name gives a salt, the structure may show the parent alone. The source made the active and inactive calls.
One label from this list, please: active, inactive

Here's what some known entries look like.
COc1cc2c(Nc3ccc(Cl)c(Cl)c3F)ncnc2cc1OC[C@@H]1C[C@@H]2CN(C)C[C@@H]2C1 [TESEVATINIB] : inactive
CCS(=O)(=O)N1CCN(c2ccc(Nc3ncc(C(N)=O)c(NC4CC4)n3)cc2)CC1 [Cerdulatinib Hydrochloride] : inactive
Cc1nc2cc(-c3nn(C(C)C)c4ncnc(N)c34)ccc2o1 : inactive
Cc1cnc(NC(=O)Nc2cc(Br)c(C)cc2OC[C@@H]2CNCCO2)cn1 [RABUSERTIB] : inactive
N#CC1(c2ccc(NC(=O)c3cccnc3NCc3ccncc3)cc2)CCCC1 [RIVOCERANIB] : inactive
FC(F)(F)c1ccc(/C=C/c2nc(COc3ccc(CCCCn4ccnn4)cc3)co2)cc1 [MUBRITINIB] : inactive
CO[C@H]1C[C@@H]2CC[C@@H](C)[C@@](O)(O2)C(=O)C(=O)N2CCCC[C@H]2C(=O)O[C@H]([C@H](C)C[C@@H]2CC[C@@H](OC(=O)C(C)(CO)CO)[C@H](OC)C2)CC(=O)[C@H](C)/C=C(\C)[C@@H](O)[C@@H](OC)C(=O)[C@H](C)C[C@H](C)/C=C/C=C/C=C/1C [TEMSIROLIMUS] : inactive
Cn1cc(-c2cnn3c(N)c(Br)c([C@@H]4CCCNC4)nc23)cn1 [SCH-900776] : inactive

Moving on to another molecule below.
[Q] Kindly provide the recorded test outcome for the following molecule: O=c1[nH]ccc2cc(OC3CCNCC3)ccc12 [SAR-407899 FREE BASE]
[A] inactive
